- Test system: SNB-78
- experiment: NCI tumour cell line growth inhibition, 48 h
Activity calls are given as the source filed them. Cut-off read from the data, not from the text of the source: active = GI50 up to about 1.1 µM and inactive = higher.
property: GI50

As a guide, the following entries are already answered.
molecule: CCc1cccc(C)c1NC(=O)C(=O)Cc1nc2ccccc2o1
measuredTarget: SNB-78
reported: > 100 µM (inactive)
//
molecule: CN(C)C(=S)Nc1nnc(Nc2ccccc2)s1
measuredTarget: SNB-78
reported: > 100 µM (inactive)

According to the records, this molecule CC(=O)/C=C/c1cccc(N=S)c1 displays GI50 of 32.8 µM (inactive)

GI50 measured on Cc1ccc(NC(=O)CCc2n[nH]c(=S)o2)cc1 = > 100 µM (inactive)
